# target_entity: TbAQP2/HAPT1 (Trypanosoma brucei brucei)
# assay_name: cell-based
# Type: cell-based
observation_type: Ki

[
  {
    "compound": "Cn1c([N+](=O)[O-])cnc1-c1nnc(N)s1 [megazol]",
    "observation_type": "Ki",
    "result": "failed to inhibit"
  },
  {
    "compound": "COc1cc(/C=C/C(=O)CC(=O)/C=C/c2ccc(O)c(OC)c2)ccc1O [curcumin]",
    "observation_type": "Ki",
    "result": "failed to inhibit"
  }
]

---

Reported values of Ki for individual entries
# target_entity: TbAQP2/HAPT1 (Trypanosoma brucei brucei, UniProt Q6ZXT3)
# Sequence (Q6ZXT3 whole entry): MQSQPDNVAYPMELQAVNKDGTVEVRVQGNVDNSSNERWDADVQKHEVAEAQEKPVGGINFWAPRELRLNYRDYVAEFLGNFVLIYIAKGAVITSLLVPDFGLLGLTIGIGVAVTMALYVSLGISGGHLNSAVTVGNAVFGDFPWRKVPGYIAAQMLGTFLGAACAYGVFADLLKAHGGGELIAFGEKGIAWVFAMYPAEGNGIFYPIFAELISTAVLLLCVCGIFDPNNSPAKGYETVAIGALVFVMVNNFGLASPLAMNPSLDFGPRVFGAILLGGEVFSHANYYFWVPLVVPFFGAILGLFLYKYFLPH
# assay_name: cell-based
# Assay type: cell-based
# condition: HAPT Ki, AVG
Give the number; µM is assumed, so skip it.

[
  {
    "compound": "N=C(N)c1cccc(OCCCCCOc2cccc(C(=N)N)c2)c1 [Meta-pentamidine RT40]",
    "quantitative_readout": 64.2
  },
  {
    "compound": "O=c1ccc2[n+]([O-])c3ccc(O)cc3oc-2c1 [resazurin]",
    "quantitative_readout": 155
  },
  {
    "compound": "COc1cc(/C=C/C(=O)CC(=O)/C=C/c2ccc(O)c(OC)c2)ccc1O [curcumin]",
    "quantitative_readout": 398
  },
  {
    "compound": "N=C(N)c1ccc(/C=C/c2ccc(C(=N)N)cc2)cc1 [Stilbamidine]",
    "quantitative_readout": 54.8
  }
]

Proceeding to the next compound to report its Ki.
Give Ki for the following compound: CC[n+]1c(-c2ccccc2)c2cc(N/N=N/c3cccc(C(=N)N)c3)ccc2c2ccc(N)cc21 [Isometamidium]
3.54

---

# System: tbaqp2/tbaqp3 null cells expressing TbAQP2WT
# assay_name: microbe, parasite or virus in culture
# Format: cell-based, Trypanosoma brucei brucei
# condition: read-out: Alamar blue EC50, MEAN
observation_type: EC50 (nM)
Give the number; nM is assumed, so skip it.

Give EC50 for the following compound: N=C(N)c1ccc(OCCCCCOc2ccc(C(=N)N)cc2)cc1 [Pentamidine]
1.61

---

# Tested on: tbaqp2/tbaqp3 null cells
# assay_name: microbe, parasite or virus in culture
# Assay type: cell-based, Trypanosoma brucei brucei
# condition: Trypanosoma brucei
observation_type: EC50

[
  {
    "compound": "CC[n+]1c(-c2ccccc2)c2cc(N/N=N/c3cccc(C(=N)N)c3)ccc2c2ccc(N)cc21 [Isometamidium]",
    "result": "95 nM"
  }
]

Give EC50 for the following compound: CC[n+]1c(-c2ccccc2)c2cc(N)ccc2c2ccc(N)cc21 [Ethidium]
1380 nM

---

# target_entity: TbAQP2^I190T (Trypanosoma brucei brucei, UniProt Q6ZXT3, I190T)
# Sequence (Q6ZXT3 whole entry I190T): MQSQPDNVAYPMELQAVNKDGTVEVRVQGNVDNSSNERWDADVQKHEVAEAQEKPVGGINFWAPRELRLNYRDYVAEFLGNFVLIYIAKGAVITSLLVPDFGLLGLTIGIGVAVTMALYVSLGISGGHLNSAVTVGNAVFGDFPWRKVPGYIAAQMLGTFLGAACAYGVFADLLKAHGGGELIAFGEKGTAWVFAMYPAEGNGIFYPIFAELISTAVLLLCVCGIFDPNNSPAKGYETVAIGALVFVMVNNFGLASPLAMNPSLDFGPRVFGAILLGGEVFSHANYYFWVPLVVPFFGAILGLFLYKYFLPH
# assay_name: cell-based
observation_type: pIC50
Quick note: pIC50 values are minus log10 of concentrations in mol/L.

Report pIC50 under test system TbAQP2^I190T (Trypanosoma brucei brucei, UniProt Q6ZXT3, I190T) for N=C(N)c1ccc(OCCCCCOc2ccc(C(=N)N)cc2)cc1 .
7.51

---

# target_entity: TbAQP2/HAPT1 (Trypanosoma brucei brucei)
# assay_name: cell-based
# Assay type: cell-based
observation_type: δ(ΔG^0) PMD
# answer = value followed by unit

Some solved entries appear below for comparison.
[
  {
    "molecule": "Cn1c(-c2ccc(C(=N)N)cc2)ccc1-c1ccc(C(=N)N)cc1 [DB320]",
    "target_entity": "TbAQP2/HAPT1 (Trypanosoma brucei brucei)",
    "δ(ΔG^0) PMD": "4.52 kcal/mol"
  },
  {
    "molecule": "N=C(N)c1ccc(OCCCCCOc2ccc(N)cc2)cc1 [RT-36]",
    "target_entity": "TbAQP2/HAPT1 (Trypanosoma brucei brucei)",
    "δ(ΔG^0) PMD": "1.48 kcal/mol"
  },
  {
    "molecule": "N=C(N)c1ccc(OCCCCCCCCOc2ccc(C(=N)N)cc2)cc1 [Octamidine]",
    "target_entity": "TbAQP2/HAPT1 (Trypanosoma brucei brucei)",
    "δ(ΔG^0) PMD": "2.44 kcal/mol"
  },
  {
    "molecule": "N=C(N)c1ccc(/C=C/c2ccc(C(=N)N)cc2)cc1 [Stilbamidine]",
    "target_entity": "TbAQP2/HAPT1 (Trypanosoma brucei brucei)",
    "δ(ΔG^0) PMD": "4.37 kcal/mol"
  },
  {
    "molecule": "N=C(N)CCc1ccc(-c2ccc(-c3ccc(CCC(=N)N)cc3)s2)cc1 [DB1063]",
    "target_entity": "TbAQP2/HAPT1 (Trypanosoma brucei brucei)",
    "δ(ΔG^0) PMD": "1.43 kcal/mol"
  }
]

Proceeding to the next molecule to report its δ(ΔG^0) PMD.
Report δ(ΔG^0) PMD under test system TbAQP2/HAPT1 (Trypanosoma brucei brucei) for N=C(N)c1ccc(-c2ccc(-c3ccc(C(=N)N)cn3)o2)nc1 [DB829] .
4.16 kcal/mol

---

Where a name gives a salt, the structure may show the parent alone.
observation_type: melting point

Some solved entries appear below for comparison.
[
  {
    "molecule": "Cl.Cl.c1cc(-c2ccc(-c3ccc(CCC4=NCCN4)cc3)s2)ccc1CCC1=NCCN1",
    "melting point": "> 225 °C (dec.)"
  },
  {
    "molecule": "COc1ccc(-c2ccc(-c3ccc(C(=N)N)cc3)o2)cc1 (as salt: hydrochloride)",
    "melting point": "250 to 252 °C (dec.)"
  },
  {
    "molecule": "Cl.N=C(N)c1ccc(OCCCCOc2ccccc2)cc1.O (hydrate or solvate)",
    "melting point": "134 to 135 °C"
  },
  {
    "molecule": "Cn1c(-c2ccc(-c3ccc(C(=N)N)cc3)o2)nc2ccccc21 (as salt: hydrochloride)",
    "melting point": "> 290 °C (dec.)"
  }
]

Proceeding to the next molecule to report its melting point.
Give melting point for the following molecule: Cl.Cl.N=C(N)c1ccc(OCCOc2ccc(C(=N)N)cc2)cc1.O.O (hydrate or solvate)
333 °C

---

# target_entity: TbAQP2/HAPT1 (Trypanosoma brucei brucei, UniProt Q6ZXT3)
# assay_name: cell-based
# Assay type: cell-based
Reported values of δ(ΔG^0) PMD for individual entries
Give the number; kcal/mol is assumed, so skip it.

[
  {
    "compound": "N=C(N)c1ccc(O)cc1 [4-hydroxybenzamidine]",
    "observation_type": "δ(ΔG^0) PMD",
    "quantitative_readout": 6.72
  },
  {
    "compound": "N=C(N)c1ccc(OCCOCCOc2ccc(C(=N)N)cc2)cc1",
    "observation_type": "δ(ΔG^0) PMD",
    "quantitative_readout": 3.66
  },
  {
    "compound": "N=C(N)Nc1ccc(-c2ccc(-c3ccc(NC(=N)N)cc3)s2)cc1",
    "observation_type": "δ(ΔG^0) PMD",
    "quantitative_readout": 1.24
  },
  {
    "compound": "N=C(N)c1ccc(NCCCCCNc2ccc(C(=N)N)cc2)cc1",
    "observation_type": "δ(ΔG^0) PMD",
    "quantitative_readout": 3.08
  },
  {
    "compound": "COc1ccc(-c2ccc(-c3ccc(C(=N)N)cc3)o2)cc1",
    "observation_type": "δ(ΔG^0) PMD",
    "quantitative_readout": 3.7
  }
]

Give δ(ΔG^0) PMD for the following compound: Cl.Cl.N=C(N)c1ccc(OCCCOc2ccc(C(=N)N)cc2)cc1.O.O
3.11

Give δ(ΔG^0) PMD for the following compound: N=C(N)CCc1ccc(-c2ccc(-c3ccc(CCC(=N)N)cc3)o2)cc1
4.04

Give δ(ΔG^0) PMD for the following compound: N=C(N)c1ccc(SCCCCCSc2ccc(C(=N)N)cc2)cc1
2.39

Give δ(ΔG^0) PMD for the following compound: CON1CCN=C1Nc1ccc(CCc2ccc(NC3=NCCN3OC)cc2)cc1
4.33

Give δ(ΔG^0) PMD for the following compound: N=C(N)c1ccc(-c2csc(-c3ccc(C(=N)N)cc3)c2)cc1
3.54

Give δ(ΔG^0) PMD for the following compound: Cl.Cl.c1cc(-c2ccc(-c3ccc(CCC4=NCCN4)cc3)o2)ccc1CCC1=NCCN1
4.4

Give δ(ΔG^0) PMD for the following compound: c1cc(C2=NCCN2)ccc1OCCCCCOc1ccc(C2=NCCN2)cc1
1.43

Give δ(ΔG^0) PMD for the following compound: N=C(N)c1ccc(-c2ccc(-c3ccc(-c4ccc(C(=N)N)cc4)o3)o2)cc1
0.43

---

Reported values of δ(ΔG0) for individual entries
# target_entity: TbAQP2/HAPT1 (Trypanosoma brucei brucei, UniProt Q6ZXT3)
# assay_name: cell-based
# Type: cell-based
Give the number; kcal/mol is assumed, so skip it.

[
  {
    "compound": "O=C(CCc1ccc(O)cc1)c1c(O)cc(O)cc1O [Phloretin]",
    "quantitative_readout": 2.32
  },
  {
    "compound": "N=C(N)c1ccc(OCCCCCOc2ccc(C(=N)N)cc2Cl)c(Cl)c1 [RT-43]",
    "quantitative_readout": 1.59
  }
]

Proceeding to the next compound to report its δ(ΔG0).
Give δ(ΔG0) for the following compound: CC[n+]1c(-c2ccccc2)c2cc(N/N=N/c3cccc(C(=N)N)c3)ccc2c2ccc(N)cc21 [Isometamidium]
2.72
